# TESTED ON: T1, mouse CNTN4-rabbit Fc (mouse; rabbit, UniProt Q69Z26 19-1000, limits assumed)
# T1 construct: not shown: rabbit Fc
# T1 sequence (looked up): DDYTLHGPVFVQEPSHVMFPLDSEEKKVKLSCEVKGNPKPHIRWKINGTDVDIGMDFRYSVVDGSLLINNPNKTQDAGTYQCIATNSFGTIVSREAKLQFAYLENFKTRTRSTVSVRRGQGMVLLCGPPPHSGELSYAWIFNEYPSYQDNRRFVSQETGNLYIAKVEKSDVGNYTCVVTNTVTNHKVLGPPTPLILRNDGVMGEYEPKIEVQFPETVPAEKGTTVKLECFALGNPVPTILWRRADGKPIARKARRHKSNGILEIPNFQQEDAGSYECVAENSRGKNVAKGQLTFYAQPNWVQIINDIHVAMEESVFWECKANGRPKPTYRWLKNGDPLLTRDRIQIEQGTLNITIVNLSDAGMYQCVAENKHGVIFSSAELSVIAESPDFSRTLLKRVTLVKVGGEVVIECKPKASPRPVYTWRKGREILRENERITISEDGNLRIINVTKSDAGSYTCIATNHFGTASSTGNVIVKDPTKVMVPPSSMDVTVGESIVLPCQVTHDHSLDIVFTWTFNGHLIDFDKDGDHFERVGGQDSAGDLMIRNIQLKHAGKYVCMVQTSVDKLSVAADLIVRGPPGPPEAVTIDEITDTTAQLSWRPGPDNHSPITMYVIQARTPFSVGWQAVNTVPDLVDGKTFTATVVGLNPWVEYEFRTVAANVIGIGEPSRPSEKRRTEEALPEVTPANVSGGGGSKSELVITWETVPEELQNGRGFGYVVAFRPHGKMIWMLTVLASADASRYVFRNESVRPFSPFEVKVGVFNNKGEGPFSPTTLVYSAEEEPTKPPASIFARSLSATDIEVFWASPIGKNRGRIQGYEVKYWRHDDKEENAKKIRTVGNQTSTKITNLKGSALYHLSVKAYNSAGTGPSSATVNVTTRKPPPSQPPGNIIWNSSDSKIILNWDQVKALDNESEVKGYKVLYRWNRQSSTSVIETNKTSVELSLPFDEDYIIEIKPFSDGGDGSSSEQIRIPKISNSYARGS
# ASSAY EXPLANATION: ELISA, plate coated with antigen-rabbit Fc, anti-human kappa-HRP
PROPERTY NAME: pEC50
// field semantics: pEC50 = negative decimal log of concentration (mol/L)

anti-CNTN4 scFv-hCk S99 (scFv, part only; not given: linker and kappa constant region, V domains shown, not shown: another chain or arm of the molecule; a dimerising Fc or GST; small tags and cut ends) VL: ALTQPSSVSANPGETVKITCSGGASYAGNYYYGWYQQKSPGSAPVTVIYNNNQRPSDIPSRFSGSLSGSTNTLTITGVQADDEAVYFCGSDDSSAGYTGIFGAGTTLTVL VH: AVTLDESGGGLQTPGGALSLVCKASEFTFSGYGMHWVRQAPGKGLEFVAEISNTGSWTGYGAAVKGRATISRDNGQSTVRLQLNNLKADDTATYYCAKVGGRGWCGRSGCADDIDAWGHGTEVIVSS = 8.44
anti-CNTN4 scFv-hCk S24 (scFv, part only; not given: linker and kappa constant region, not shown: a dimerising Fc or GST) scFv, part: ALTQPSSVSANPGETVEITCSGGSGSYGWYQQKAPGSAPVTVIYDNTNRPSNIPSRFSGSGSDSTGTLTITGVQADDEAVYYCGSYDSIEVIFGAGTTLTVLAVTLDESGGGLHTPGGALSLVCKASGFTFSSYGMAWVRQAPGKGLEWVAGITSSGSSAGYGPAVKGRATISRDNGQSTVRLQLNNLRAEDTATYYCAKDGYIYSGGDSDSIDAWGHGTEVIVSS = 8.68
anti-CNTN4 scFv-hCk S134 (scFv, part only; not given: linker and kappa constant region, V domains shown, not shown: another chain or arm of the molecule; a dimerising Fc or GST; small tags and cut ends) VL: ALTQPSSVSANPGETVKITCSGGTYSYGNYYYGWYQQKSPGSAPVTVIYNNNNRPSDIPSRFSGSGSGSTGTLTITGVRAEDEAVYYCGGYDGSTDVFGAGTTLTVL VH: AVTLDESEGGLQTPGGALSLVCKASGFTFSSFNMFWVRQAPGKGLEYVAEISGGGGSTWYAPAVKGRATISRDNGQSTVRLQLNNLRAEDTGTYYCAKSADTWSYGAATIDAWGHGTEVIVSS = 9.12
anti-CNTN4 scFv-hCk S6 (scFv, part only; not given: linker and kappa constant region, not shown: a dimerising Fc or GST) scFv, part: ALTQPSSVSANPGETVKITCSGGSGNYGWYQQKSPGSAPVTVIYNGNNRPSDIPSRFSGSGSGSTNTLAITGVQAEDEAVYFCGGYDGTIDAFGAGTTLTVLAVTLDESEGGLQTPGGALSLVCKASGFTFSSFNMFWVRQAPGKGLEYVAEISGGGGSTWYAPAVKGRATISRDNGQSTVRLQLNNLRAEDTGTYYCAKSADTWSYGAATIDAWGHGTEVIVSS = 8.73

Consider the record given below.
Item: anti-CNTN4 scFv-hCk S4 (scFv, part only; not given: linker and kappa constant region, not shown: a dimerising Fc or GST) scFv, part: ALTQPSSVSANPGESVKITCSGGGSSYYGWYQQKSPGSAPVTLIYQNTNRPSNIPSRFSGSGSGSTGTLTITGVRAEDEAVYYCGGYDGSTDVFGAGTTLTVLAVTLDESEGGLQTPGGALSLVCKASGFTFSSFNMFWVRQAPGKGLEYVAEISGGGGSTWYASAVKGRATISRDNGQSTVRLQLNNLRAEDTGTYYCAKSADTWSYGAATIDAWGHGTEVIVSS | pEC50: 8.94
